- Study Target: T1, human TMEM106B (human, UniProt Q9NUM4 2-274)
- T1 construct: full-length, transiently expressed on HEK293 cells, or natively expressed on HeLa, U251 and A549 cells (the cell is named under assay); also the source of the Pepscan peptides; also called huTMEM106B; huTMEM
- Run Description: FACS HEK+huTMEM 0.1 ug/ml (2nd column so headed);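 note: flow cytometry binding of purified anti-TMEM106B mouse IgG to HEK293 cells transiently transfected with TMEM106B, read as median fluorescence intensity on live (propidium iodide-negative) cells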
Use 2000 MFI as the dividing line for MFI, with the line itself on the true side and lower values as false.

A selection of reference data follows.
Binder	Category
TM-2 (antibody, V domains shown) VH: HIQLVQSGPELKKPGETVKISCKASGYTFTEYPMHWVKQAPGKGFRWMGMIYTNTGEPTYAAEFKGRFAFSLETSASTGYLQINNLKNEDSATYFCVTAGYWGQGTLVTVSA VL: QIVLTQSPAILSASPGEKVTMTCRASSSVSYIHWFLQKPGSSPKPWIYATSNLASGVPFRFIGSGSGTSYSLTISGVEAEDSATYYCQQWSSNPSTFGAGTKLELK	false
TM-30 (antibody, V domains shown, mouse IgG (hybridoma)) VH: QVQLQQSGPELVKPGASVKLSCKASDNTFTNYDVNWVRQRPGQGLEWIGWIYPRDGTTIYNEKFKGRATLTVDTSSSTAYMELHSLTSEDSAVFFCARTLPQAMDYWGQGTSVTVSS VL: DVLMTQSPLSLPVSLGDQVSISCRSSQTIVHRNGNTYLEWYLQKPGQSPKLLIYKVSNRFSGVPDRFSGSGSGTDFTLKISRVEAEDLGVYYCFQGSHLPWTFGGGTKLEIK	true
TM-7 (antibody, V domains shown) VH: EVQLQQSGPVLVKPGPPVKISCKASGFTFTDYYIHWVKLSHGKSLEWIGLVYPYNGDTDYNQKFKGKATLTVDTSSSTAYMELNSLTSEDSAVYYCARTYYANSPDYWGQGTTVTVSS VL: DIVMTQSPSSLSVSAGEKVTMSCKSSQSLLNSGNQRNYLAWYQQKPGQPPKLLIYGASTRESGVPDRFTGSGSGTDFTLTISNVQAEDLAVYYCQNDHSYPLTFGAGTKLELK	false
TM-25 (antibody, V domains shown) VH: EVQLVESGGDLVKPGGSLRLSCAASGFTFSGYGMSWIRQTPDKRLEWVATISSGGRYTVYPDSVKGRFTMSRDNVKNTLYLQMSSLKSEDTALYYCARDNFYSYAMDYWGLGTSVTVSA VL: DIVMTQAAFSNPVTLGTSASISCRSSKSLLHSNGITYLFWYLQKPGQSPQLLIYQMSNLASGVPDRFSSSGSGTDFTLRISRVEAEDVGVYYCAQNLELWTFGGGTKLEIK	true

Now for a further binder.
Decide: is the reported value of MFI for TM-3 (antibody, V domains shown) VH: QVTLKESGPGIVQPSQTLSLTCSFSGFSLNTLGRGVGWIRQPSGKGLEWLAKIWWNDDKFYYPALKSRLTISKDTSKNQIFLKIANVDTADSATYYCARIAGGTGAAYWGQGTTLTVSS VL: DIVMTQAAFSNPVTLGTSASISCRSSKSLLHSNGITYLYWYLQKPGQSPQLLISQMSSLASGVPDRFSSGGSGTDFTLRISRVEAEDVGVFYCAQNLELPWTFGGGTKLELK equal to or greater than 2000 MFI?
true
